- PROTOCOL CONDITIONS: 313.15 K; 100 kPa; Liquid; Capillary tube (Ostwald / Ubbelohde) method
# if value of viscosity reaches 20 mPa·s, tag True; if it stays below, tag False

Example cases with answers are listed next.
>>> print(df.to_string())
                                   compound  assigned_class
0  O=S(=O)([N-]S(=O)(=O)C(F)(F)F)C(F)(F)F.On1cc[n+](O)c1 [1,3-dihydroxyimidazolium bis(trifluoromethylsulfonyl)imide]            True
1  CCCC[N+]1(C)CCCC1.O=S(=O)([N-]S(=O)(=O)C(F)(F)F)C(F)(F)F            True
2  CC[S+](CC)CC.O=S(=O)([N-]S(=O)(=O)C(F)(F)F)C(F)(F)F [triethylsulfonium bis((trifluoromethyl)sulfonyl)imide]           False

Consider the additional compound presented here.
## Task Does viscosity meet or surpass 20 mPa·s for CCCO [propan-1-ol] ?
## Result False
